test system: SF-295 CNS; test: NCI-60 one-dose screen, 48 h; details: 10 µM unless noted
Compounds without any hit were thinned out: in the full panel of roughly 83,000, 20% have a hit. The source made the active and inactive calls. Rule for the calls: active = growth percent below 10; inactive = the rest.
Please state which outcome applies, choosing from 1 for active, 0 for inactive

# count of solved cases: 5
// outcome(item) with item = CC1(C)CC(=O)C=C(N)C1 0

// outcome(item) with item = CC(=O)Nc1ccc(C(=O)c2ccc(S(=O)(=O)Nc3ccccc3)cc2)cc1 0

// outcome(item) with item = N#CC1(O)CCCCC1 0

// outcome(item) with item = C=CCc1cc(OC)c(O)c(OC)c1 0

// outcome(item) with item = Cc1ccc[n+](CCC(N)=O)c1 0

---
// outcome(item) with item = CN(C)c1ccc(/C=C/C(=O)c2ccc(NC(N)=O)cc2)cc1 0

// outcome(item) with item = O=C(O)c1ccccc1Cc1ccc2c(c1)CCCC2 0

* * *

Would you kindly list growth for each of these compounds?
test system: CAKI-1 renal; experiment: NCI-60 one-dose screen, 48 h (100 = growth as untreated, 0 = no growth, -100 = all killed); conditions: 10 µM unless noted
About 83,000 compounds went through this panel and 20% of them were active in at least one assay; those are over-represented in the sample as a whole. The source made the active and inactive calls. How the source made its calls: active means growth percent below 10; inactive means the rest.

// worked examples, growth included
Please give measured growth of the following entry: Cc1ccc(S(=O)(=O)Oc2ccc3sc4c(CO)ccc(NCCN(C)C)c4c(=O)c3c2)cc1 -91% [100 µM] (active)

Please give measured growth of the following entry: ClCc1cccc2c(CCl)cccc12 15.2% (inactive)

Please give measured growth of the following entry: CC1CCC(C)(C)c2ccccc21 (stereo not given) 96.5% (inactive)

Please give measured growth of the following entry: NNC(=O)CCCCl 107% (inactive)

Please give measured growth of the following entry: O=C(c1cccc(C(=O)c2ccc3c4c(cccc24)C(=O)N(c2ccccc2)C3=O)c1)c1ccc2c3c(cccc13)C(=O)N(c1ccccc1)C2=O 100% (inactive)

Give one value of growth per listed compound.
1. CCCC1OC(c2ccco2)OCC1CC (stereo not given)
2. O=C(NCc1ccccc1)/C(=C/c1ccccc1)NC(=O)c1ccccc1

1: 88.2% (inactive); 2: 103% (inactive)

Give one value of growth per listed compound.
1. Cc1ccc(C)c(CCO)c1
2. Oc1cc2ccccc2c(-c2c(O)c(O)cc3ccccc23)c1O
3. CN(C(=S)S(=O)(=O)C12CC3CC(CC(C3)C1)C2)c1ccccc1
4. O=Cc1ccc(Cl)c(Cl)c1
5. CCN(CC)c1ccc2nc3ccc(N=Nc4ccc(N(C)C)cc4)cc3[n+](-c3ccccc3)c2c1
6. O=c1[nH]c(=O)c2cc(Cl)cc(Cl)c2[nH]1
7. C=CCS(C)(=O)=O

115% (inactive)
19.1% (inactive)
81.8% (inactive)
111% (inactive)
-27.8% (active)
92% (inactive)
92.5% (inactive)

Give one value of growth per listed compound.
1. C=CC1=NC(C)(C)CC(C)O1 (stereo not given)
2. C=CCC(O)C=C (stereo not given)
3. Cc1cc2c(C(C)C)c(O)c(O)c(C=Nc3ccccc3[N+](=O)[O-])c2c(O)c1-c1c(C)cc2c(C(C)C)c(O)c(O)c(C=Nc3ccccc3[N+](=O)[O-])c2c1O
4. COC1(OC)C2(Cl)C(Cl)=C(Cl)C1(Cl)C1COCC12 (stereo not given)
5. O=S(=O)(O)c1cccc2cccnc12
6. Cc1ccc(C)c2c1CCC2=O
7. NNC(=O)c1ccccc1N
8. Cc1ccccc1CC(N)C(=O)O (stereo not given)

1: 114% (inactive); 2: 97.4% (inactive); 3: 88% (inactive); 4: 93.9% (inactive); 5: 96.1% (inactive); 6: 95.9% (inactive); 7: 104% (inactive); 8: 96.6% (inactive)

Give one value of growth per listed compound.
1. CC(C)N(CCCC#N)C(C)C
2. CC(=O)OC/C(C)=C\CC(C)COC(C)=O (stereo not given)
3. CCOc1ccc(NC(=S)N2CCC(CCCC3CCN(C(=S)Nc4ccc(OCC)cc4)CC3)CC2)cc1
4. CCC12OC(COc3ccccc3)CN1CCN2c1ccccc1 (stereo not given)
5. COc1cc(C(=O)O)c(O)c(C(C)(C)C)c1
6. CCN(CC)CCN1CNC(=S)NC1
7. Cc1ccc(S(N)(=O)=O)cc1Cl

1: 95.1% (inactive); 2: 96.3% (inactive); 3: 69.7% (inactive); 4: 89% [100 µM] (inactive); 5: 102% (inactive); 6: 106% (inactive); 7: 101% (inactive)

Give one value of growth per listed compound.
1. C/C(=N\O)c1ccccn1
2. COC1OC(C(O)C(O)CO)C(O)C(O)C1O (stereo not given)
3. NC(=O)c1cc2c3ccccc3ccn2c1-c1ccccc1

["95.3% (inactive)", "95.6% (inactive)", "-9.87% (active)"]

Give one value of growth per listed compound.
1. CSCC[C@@H]1C(=O)N(C)[C@H](C(C)(C)C)N1C(=O)c1ccccc1
2. O=C(O)CSCC(=O)Nc1cc(C(F)(F)F)ccc1Cl

100% (inactive)
89.4% (inactive)

Give one value of growth per listed compound.
1. CC(c1ccccc1)N(C)C (stereo not given)
2. C=C1CC2(OC1=O)C(=O)N(C)c1ccc(I)cc12 (stereo not given)

1. 96.5% (inactive)
2. -91.3% (active)

Give one value of growth per listed compound.
1. Cc1ccc(N)c(S(=O)(=O)O)c1
2. C=CC(C)(C)n1cc(C2=C(O)C(=O)C(c3cn(C(C)(C)C=C)c4ccccc34)=C(O)C2=O)c2ccccc21

1: 90.8% (inactive); 2: 89.7% (inactive)

Give one value of growth per listed compound.
1. CC(O)C(F)(F)C(F)(F)C(F)(F)F (stereo not given)
2. O=[N+]([O-])c1ccc2[nH]c(=S)n(/C=C(/c3ccc(Cl)cc3Cl)S(=O)(=O)Cc3ccc(Cl)cc3Cl)c2c1

1. 99.2% (inactive)
2. 97.4% (inactive)
